- method-description: Cmax in dog at 10 mg/kg, po measured for 24 hrs by LC-MS/MS analysis
- Type: ADME, organism-based, Canis lupus familiaris
- settings: in vivo
endpoint: Cmax (ng/mL)
Output spec: scalar in ng/mL, unitless text.

[ask] I have this molecule here, C[C@@H](Oc1ccc2[nH]nc(-c3ccc(N4CC5(C4)CN(S(C)(=O)=O)C5)nc3)c2c1)c1c(Cl)cncc1Cl , and I need its recorded Cmax.
[reply] 3090

---

- method-description: Inhibition of recombinant BCR/FGFR2 (unknown origin) transduced in mouse BaF3 cells incubated for 48 hrs by Cell Titer Glo assay
- Format: cell-based
- settings: BaF3, 48 h
pIC50: −log10 of the molar value.
Decide by pIC50: equal to or exceeding 7 means Yes, less means No.

# compound, cat
measured = [
    ("C[C@@H](Oc1ccc2[nH]nc(-c3ccc(N4CC5(CCN(S(C)(=O)=O)C5)C4)nc3)c2c1)c1c(Cl)cncc1Cl", "No"),
    ("C[C@@H](Oc1ccc2[nH]nc(-c3ccc(N4CC5(C4)CS(=O)(=O)C5)nc3)c2c1)c1c(Cl)cncc1Cl", "No"),
    ("C[C@@H](Oc1ccc2[nH]nc(-c3cnc(N4CC5(C4)CN(S(C)(=O)=O)C5)nc3)c2c1)c1c(Cl)cncc1Cl", "No"),
    ("C[C@@H](Oc1ccc2[nH]nc(-c3ccc(N4CC5(C4)CN(S(C)(=O)=O)C5)nn3)c2c1)c1c(Cl)cncc1Cl", "No"),
    ("C[C@@H](Oc1cc2c(-c3ccc(N4CC5(C4)CN(S(C)(=O)=O)C5)nc3)n[nH]c2cc1F)c1c(Cl)cncc1Cl", "Yes"),
]

[ask] Does pIC50 meet or surpass 7 for C[C@@H](Oc1ccc2[nH]nc(-c3ccc(N4CCN(C(=O)N(C)C)CC4)nc3)c2c1)c1c(Cl)cncc1Cl ?
[reply] No

[ask] Determine whether this compound has pIC50 no lower than 7: C[C@@H](Oc1ccc2[nH]nc(-c3ccc(N4CCN(C)CC4)nc3)c2c1)c1c(Cl)cncc1Cl
[reply] Yes

[ask] Check if pIC50 >= 7 (inclusive). Item: C[C@@H](Oc1ccc2[nH]nc(-c3ccc(N4CCC5(CC4)CCS(=O)(=O)C5)nc3)c2c1)c1c(Cl)cncc1Cl
[reply] No

[ask] Hi team, for C[C@@H](Oc1ccc2[nH]nc(/C=C/c3cnn(CCO)c3)c2c1)c1c(Cl)cncc1Cl [LY-2874455] , is the recorded pIC50 at or above 7?
[reply] Yes

---

- method-description: Tmax in Sprague-Dawley rat at 10 mg/kg, po measured for 24 hrs by LC-MS/MS analysis
- Assay type: ADME, organism-based
- settings: in vivo
endpoint: Tmax (h)
Entry rule: numbers only, all in h.

[ask] Look up Tmax for this compound: C[C@@H](Oc1ccc2[nH]nc(-c3ccc(N4CC5(C4)CN(S(C)(=O)=O)C5)nc3)c2c1)c1c(Cl)cncc1Cl
[reply] 4

---

- method-description: Apparent permeability in MDCK-MDR1 cells
- Format: ADME, cell-based, Canis lupus familiaris
- settings: dog
endpoint: Papp (×10⁻⁶ cm/s)
// units = ×10⁻⁶ cm/s; emit number, no label

[ask] I have this compound here, C[C@@H](Oc1ccc2[nH]nc(-c3ccc(N4CC5(C4)CN(S(C)(=O)=O)C5)nc3)c2c1)c1c(Cl)cncc1Cl , and I need its recorded Papp.
[reply] 1

---

pIC50 values by entry
- method-description: Inhibition of recombinant BCR/FGFR2 (unknown origin) transduced in mouse BaF3 cells incubated for 48 hrs by Cell Titer Glo assay
- Assay type: cell-based
- settings: BaF3, 48 h
FYI, pIC50 means -log10 of a concentration in mol per litre.

# molecule-smiles, pIC50
data = [
    ("COc1cc(OC)cc(N(CCNC(C)C)c2ccc3ncc(-c4cnn(C)c4)nc3c2)c1", 8.42),
]

[ask] Requested field: pIC50. Item: CCS(=O)(=O)N1CC2(CN(c3ccc(-c4n[nH]c5ccc(O[C@H](C)c6c(Cl)cncc6Cl)cc45)cn3)C2)C1
[reply] 6.54

[ask] Any idea what its pIC50 is? The compound is C[C@@H](Oc1ccc2[nH]nc(-c3ccc(N4CCC5(CCCO5)CC4)nc3)c2c1)c1c(Cl)cncc1Cl
[reply] 6.30

[ask] // lookup pIC50 for C[C@@H](Oc1ccc2[nH]nc(-c3ccc(N4CCN(S(C)(=O)=O)CC4)nc3)c2c1)c1c(Cl)cncc1Cl
[reply] 6.98

---

- method-description: Inhibition of recombinant BCR/FGFR4 (unknown origin) transduced in mouse BaF3 cells incubated for 48 hrs by Cell Titer Glo assay
- Assay type: cell-based
- settings: BaF3, 48 h
endpoint: pIC50
Note on units: pIC50 is unitless, being -log10 of a concentration expressed in mol/L.

Known results for compounds:
# molecule-smiles, pIC50
rows = [
    ("C[C@@H](Oc1ccc2[nH]nc(-c3ccc(Cl)nc3)c2c1)c1c(Cl)cncc1Cl", 5.66),
    ("C[C@@H](Oc1ccc2[nH]nc(-c3ccc(N4CCN(S(C)(=O)=O)CC4)nc3)c2c1)c1c(Cl)cncc1Cl", 6.81),
    ("C[C@@H](Oc1ccc2[nH]nc(-c3ccc(N4CC5(C4)CS(=O)(=O)C5)nc3)c2c1)c1c(Cl)cncc1Cl", 6.52),
    ("CCOC(=O)N1CC2(C1)CN(c1ccc(-c3n[nH]c4ccc(O[C@H](C)c5c(Cl)cncc5Cl)cc34)cn1)C2", 6.38),
    ("C[C@@H](Oc1ccc2[nH]nc(/C=C/c3cnn(CCO)c3)c2c1)c1c(Cl)cncc1Cl", 8.70),
]

[ask] Record request: pIC50 value, item C[C@@H](Oc1ccc2[nH]nc(-c3ccc(N4CCC5(CCCO5)CC4)nc3)c2c1)c1c(Cl)cncc1Cl
[reply] 5.69

[ask] pIC50 for C[C@@H](Oc1ccc2[nH]nc(-c3ccc(N4CC5(CCN5S(C)(=O)=O)C4)nc3)c2c1)c1c(Cl)cncc1Cl ?
[reply] 6.64

[ask] Can you share its pIC50? I mean this compound: C[C@@H](Oc1ccc2[nH]nc(-c3ccc(N4CC5(CCCN(S(C)(=O)=O)C5)C4)nc3)c2c1)c1c(Cl)cncc1Cl
[reply] 7.41

---

- study-target: Fibroblast growth factor receptor 1 (Homo sapiens, UniProt P11362)
- Sequence (P11362 whole entry): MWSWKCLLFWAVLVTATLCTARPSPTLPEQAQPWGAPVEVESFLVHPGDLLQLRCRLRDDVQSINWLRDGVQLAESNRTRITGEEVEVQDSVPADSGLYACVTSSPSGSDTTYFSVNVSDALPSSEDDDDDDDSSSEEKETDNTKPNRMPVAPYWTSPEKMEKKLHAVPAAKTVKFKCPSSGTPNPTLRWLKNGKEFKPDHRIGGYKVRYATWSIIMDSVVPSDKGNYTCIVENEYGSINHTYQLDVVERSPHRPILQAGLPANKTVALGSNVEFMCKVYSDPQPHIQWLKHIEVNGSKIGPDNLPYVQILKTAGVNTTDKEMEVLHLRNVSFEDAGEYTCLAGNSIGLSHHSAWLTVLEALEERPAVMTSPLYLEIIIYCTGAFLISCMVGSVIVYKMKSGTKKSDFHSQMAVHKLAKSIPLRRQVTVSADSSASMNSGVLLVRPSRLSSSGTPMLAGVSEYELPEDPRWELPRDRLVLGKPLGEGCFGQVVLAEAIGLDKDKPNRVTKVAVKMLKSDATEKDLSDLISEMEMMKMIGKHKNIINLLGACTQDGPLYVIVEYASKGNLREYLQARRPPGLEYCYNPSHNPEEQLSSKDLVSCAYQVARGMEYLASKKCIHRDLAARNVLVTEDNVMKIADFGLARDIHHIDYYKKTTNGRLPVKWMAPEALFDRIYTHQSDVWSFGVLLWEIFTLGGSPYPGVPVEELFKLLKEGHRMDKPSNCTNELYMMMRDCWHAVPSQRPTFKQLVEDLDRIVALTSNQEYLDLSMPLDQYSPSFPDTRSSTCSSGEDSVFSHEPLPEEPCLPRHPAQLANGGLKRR
endpoint: IC50
Form entry: enter the amount, then its unit.

[ask] Provide the documented IC50 with Fibroblast growth factor receptor 1 (Homo sapiens, UniProt P11362) as the system for C[C@@H](Oc1ccc2[nH]nc(-c3ccc(N4CC5(C4)CN(S(C)(=O)=O)C5)nc3)c2c1)c1c(Cl)cncc1Cl
[reply] 108 nM

---

- method-description: Half life in monkey at 1 mg/kg, iv measured for 24 hrs by LC-MS/MS analysis
- Assay type: ADME, organism-based, Macaca mulatta
- settings: rhesus monkey, in vivo
endpoint: half-life (h)
Write the answer as a number in h, unit excluded.

[ask] Requested field: half-life. Item: C[C@@H](Oc1ccc2[nH]nc(-c3ccc(N4CC5(C4)CN(S(C)(=O)=O)C5)nc3)c2c1)c1c(Cl)cncc1Cl
[reply] 1.17

---

- method-description: Clearance in dog at 1 mg/kg, iv measured for 24 hrs by LC-MS/MS analysis
- Type: ADME, organism-based, Canis lupus familiaris
- settings: in vivo
endpoint: clearance (mL/min/kg)
Numeric only. Scale: mL/min/kg

[ask] Which measured clearance value corresponds to C[C@@H](Oc1ccc2[nH]nc(-c3ccc(N4CC5(C4)CN(S(C)(=O)=O)C5)nc3)c2c1)c1c(Cl)cncc1Cl ?
[reply] 2.68

---

- study-target: Fibroblast growth factor receptor 3 (Homo sapiens)
- Sequence (P22607 whole entry): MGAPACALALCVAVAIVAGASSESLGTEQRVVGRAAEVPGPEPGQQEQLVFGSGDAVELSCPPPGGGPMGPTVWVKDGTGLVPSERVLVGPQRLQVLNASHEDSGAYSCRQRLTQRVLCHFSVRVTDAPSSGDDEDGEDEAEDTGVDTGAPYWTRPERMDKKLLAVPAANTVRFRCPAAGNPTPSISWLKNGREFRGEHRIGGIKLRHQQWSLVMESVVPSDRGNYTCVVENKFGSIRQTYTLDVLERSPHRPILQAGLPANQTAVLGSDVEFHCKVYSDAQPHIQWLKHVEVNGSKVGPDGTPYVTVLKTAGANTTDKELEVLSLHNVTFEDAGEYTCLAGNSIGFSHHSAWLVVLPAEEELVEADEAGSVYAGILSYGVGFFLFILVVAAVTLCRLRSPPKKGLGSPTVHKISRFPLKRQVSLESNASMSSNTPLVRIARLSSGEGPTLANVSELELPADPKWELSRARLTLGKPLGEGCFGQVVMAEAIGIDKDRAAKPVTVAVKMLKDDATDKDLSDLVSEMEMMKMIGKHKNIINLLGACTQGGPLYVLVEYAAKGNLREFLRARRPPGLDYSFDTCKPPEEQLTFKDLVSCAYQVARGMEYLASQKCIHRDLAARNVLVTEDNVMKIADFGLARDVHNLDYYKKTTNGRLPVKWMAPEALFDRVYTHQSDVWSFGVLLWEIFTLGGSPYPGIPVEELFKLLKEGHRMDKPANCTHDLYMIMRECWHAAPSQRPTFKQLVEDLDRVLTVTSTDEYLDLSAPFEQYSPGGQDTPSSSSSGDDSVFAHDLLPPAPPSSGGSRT
- method-description: Inhibition of wild-type FGFR3 (unknown origin) by mobility shift assay
endpoint: IC50
Field: value (include unit after the number)

[ask] Form field: reported IC50 of C[C@@H](Oc1ccc2[nH]nc(-c3ccc(N4CC5(C4)CN(S(C)(=O)=O)C5)nc3)c2c1)c1c(Cl)cncc1Cl
[reply] 1.6 nM

---

- study-target: Fibroblast growth factor receptor 3 (Homo sapiens)
- method-description: Inhibition of wild-type FGFR3 (unknown origin) by NanoBRET assay
endpoint: IC50
In your response, put the unit directly after the numeric value.

[ask] For C[C@@H](Oc1ccc2[nH]nc(-c3ccc(N4CC5(C4)CN(S(C)(=O)=O)C5)nc3)c2c1)c1c(Cl)cncc1Cl , what is its reported IC50?
[reply] 21 nM

---

- method-description: Inhibition of cell viability in human UMUC14 cells harboring FGFR3 S249C mutant incubated for 72 to 120 hrs by Cell Titer Glo assay
- Assay type: functional, cell-based
endpoint: IC50 (nM)
Give your result in nM as a bare value.

# molecule-smiles, readout-value
rows = [
    ("C[C@@H](Oc1ccc2[nH]nc(-c3ccc(N4CC5(C4)CN(S(C)(=O)=O)C5)nc3)c2c1)c1c(Cl)cnnc1Cl", 1580),
    ("C[C@@H](Oc1ccc2[nH]nc(-c3ccc(N4CC5(CCN(S(C)(=O)=O)CC5)C4)nc3)c2c1)c1c(Cl)cncc1Cl", 15),
    ("COc1cc(OC)cc(N(CCNC(C)C)c2ccc3ncc(-c4cnn(C)c4)nc3c2)c1", 3.8),
]

Then this compound:
[ask] What does the data say about its IC50? Entry: C[C@@H](Oc1ccc2[nH]nc(-c3ccc(N4CC5(CCN(S(C)(=O)=O)C5)C4)nc3)c2c1)c1c(Cl)cncc1Cl
[reply] 13
